Origin of the recorded values: patent US6469146B1

Tested on: whole blood
TEST_SUMMARY: Cell separation on whole blood (Polymorphprep gradient), activity in separated fractions
Format: cell-based, human
Design: tested at 2 mCi (74 MBq) in 3 mL blood
TEST_SETTINGS: fraction: erythrocytes
Threshold rule: Cell separation on whole blood (activity %): Erythrocytes greater than or equal to 10% is label 1; below that, label 0.

MOLECULE | ASSIGNED_CLASS
COc1cccc(C(=S)S[S][99Tc]([S]SC(=S)c2cccc(OC)c2)[S]C(=S)c2cccc(OC)c2)c1 [Example 15, [^99mTc(3-MeOPhCS3)2(3-MeOPhCS2)]] | label 1
CCCCc1ccc(C(=S)S[S][99Tc]([S]SC(=S)c2ccc(CCCC)cc2)[S]C(=S)c2ccc(CCCC)cc2)cc1 [Example 12, [^99mTc(4-nBuPhCS3)2(4-nBuPhCS2)]] | label 1
CCCCc1ccc(C(=S)S[S][99Tc]([S]SC(=S)c2ccc(CCCC)cc2)[S]C(=S)c2ccc(CCCC)cc2)cc1 [Example 11, [^99mTc(4-nBuPhCS3)2(4-nBuPhCS2)]] | label 1
CCc1ccc(C(=S)S[S][99Tc]([S]SC(=S)c2ccc(CC)cc2)[S]C(=S)c2ccc(CC)cc2)cc1 [Example 7, [^99mTc(4-EtPhCS3)2(4-EtPhCS2)]] | label 1
Oc1ccc(C(=S)S[S][99Tc]([S]SC(=S)c2ccc(O)cc2)[S]C(=S)c2ccc(O)cc2)cc1 [Example 18, [^99mTc(4-OHPhCS3)2(4-OHPhCS2)]] | label 0
Fc1ccc(C(=S)S[S][99Tc]([S]SC(=S)c2ccc(F)cc2)[S]C(=S)c2ccc(F)cc2)cc1 [Example 20, [^99mTc(4-FPhCS3)2 (4-FPhCS2)]] | label 1
